# System: 171881-019-R-J1-PDC complex spheroid growth, % test/control
# Assay Notes: Anticancer human tumor 171881-019-R-J1-PDC patient-derived invasive breast carcinoma cell line growth inhibition [Asc]; active = viability on the fitted dose curve at most 10% of control; inactive = the rest
# Reported Conditions: second compound 3.16 µM; first compound 1 µM
Tick one outcome: active, inactive

COc1c(OCCCN2CCOCC2)ccc2c3n(c(=NC(=O)c4cnc(N)nc4)nc12)CCN3 + Cc1c(S(C)(=O)=O)c(-c2cc(F)cc(N3CCN(c4ccc(NS(=O)(=O)c5ccc(NC(CCN6CCC(C(=O)OCCCP(=O)(O)O)CC6)CSc6ccccc6)c(S(=O)(=O)C(F)(F)F)c5)cc4)CC3)c2)c(-c2ccc(Cl)cc2)n1C(C)C ... active

Data request: Entry C#Cc1c(F)ccc2cc(O)cc(-c3ncc4c(N5CC6CCC(C5)N6)nc(OCC56CCCN5CC(F)C6)nc4c3F)c12 (configuration not stated) + Cc1c(S(C)(=O)=O)c(-c2cc(F)cc(N3CCN(c4ccc(NS(=O)(=O)c5ccc(NC(CCN6CCC(C(=O)OCCCP(=O)(O)O)CC6)CSc6ccccc6)c(S(=O)(=O)C(F)(F)F)c5)cc4)CC3)c2)c(-c2ccc(Cl)cc2)n1C(C)C : call = ?
Data returned: inactive

###

# System: 171881-019-R-J1-PDC complex spheroid growth, % test/control
# Assay Notes: Anticancer human tumor 171881-019-R-J1-PDC cell line growth inhibition [Asc];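 as to viability, T/C: spheroids exposed to compounds for 7 days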
# Reported Conditions: second compound 0.0316 µM; first compound 3.16 µM; stronger effect = lower value
Value Type: viability, T/C (%)
Answers are plain numbers, in %.

Some entries whose results are on file:
O=C(c1cc(Cc2n[nH]c(=O)c3ccccc23)ccc1F)N1CCN(C(=O)C2CC2)CC1 + CNC(C)C(=O)NC1CN(S(=O)(=O)c2cccc(S(=O)(=O)N3CCC4CCC(C(=O)NC(c5ccccc5)c5ccccc5)N4C(=O)C(NC(=O)C(C)NC)C3)c2)CCC2CCC(C(=O)NC(c3ccccc3)c3ccccc3)N2C1=O ... 107
C=CC(=O)N1CCN(c2nc(=O)n(-c3c(C)ccnc3C(C)C)c3nc(-c4c(O)cccc4F)c(F)cc23)C(C)C1 (centres undefined) + CNC(C)C(=O)NC1CN(S(=O)(=O)c2cccc(S(=O)(=O)N3CCC4CCC(C(=O)NC(c5ccccc5)c5ccccc5)N4C(=O)C(NC(=O)C(C)NC)C3)c2)CCC2CCC(C(=O)NC(c3ccccc3)c3ccccc3)N2C1=O ... 85.2
C#Cc1c(F)ccc2cc(O)cc(-c3ncc4c(N5CC6CCC(C5)N6)nc(OCC56CCCN5CC(F)C6)nc4c3F)c12 (centres undefined) + CNC(C)C(=O)NC1CN(S(=O)(=O)c2cccc(S(=O)(=O)N3CCC4CCC(C(=O)NC(c5ccccc5)c5ccccc5)N4C(=O)C(NC(=O)C(C)NC)C3)c2)CCC2CCC(C(=O)NC(c3ccccc3)c3ccccc3)N2C1=O ... 261

Would you kindly look at the next entry?
Value of measured viability, T/C for the entry C=C(F)C(=O)N1CCN(c2nc(OCC3CCCN3C)nc3c2CCN(c2cccc4cccc(Cl)c24)C3)CC1CC#N (centres undefined) + CNC(C)C(=O)NC1CN(S(=O)(=O)c2cccc(S(=O)(=O)N3CCC4CCC(C(=O)NC(c5ccccc5)c5ccccc5)N4C(=O)C(NC(=O)C(C)NC)C3)c2)CCC2CCC(C(=O)NC(c3ccccc3)c3ccccc3)N2C1=O : 112

###

# System: 171881-019-R-J1-PDC complex spheroid growth, % test/control
# Assay Notes: Anticancer human tumor 171881-019-R-J1-PDC cell line growth inhibition [Asc]
# Reported Conditions: curve of first compound; second compound 0.03 µM
pIC50: −log10 of the molar value.
What pIC50 was measured for each of the following?

Some entries whose results are on file:
COc1c(OCCCN2CCOCC2)ccc2c3n(c(=NC(=O)c4cnc(N)nc4)nc12)CCN3 + CCN1C(C(=O)NC23CCC(C(=O)O)(CC2)CC3)C(c2cccc(Cl)c2F)C2(C(=O)Nc3cc(Cl)ccc32)C12CCCCC2 ... 7.45
O=C(c1ccc(F)c(F)c1Nc1ccc(I)cc1F)N1CC(O)([C@@H]2CCCCN2)C1 + CCN1C(C(=O)NC23CCC(C(=O)O)(CC2)CC3)C(c2cccc(Cl)c2F)C2(C(=O)Nc3cc(Cl)ccc32)C12CCCCC2 ... 6.29
CCN1CCN(Cc2ccc(Nc3ncc(F)c(-c4cc(F)c5nc(C)n(C(C)C)c5c4)n3)nc2)CC1 + CCN1C(C(=O)NC23CCC(C(=O)O)(CC2)CC3)C(c2cccc(Cl)c2F)C2(C(=O)Nc3cc(Cl)ccc32)C12CCCCC2 ... < 6.00

For each of the compounds below, note its pIC50.
1. Cn1ncnc1[C@H]1c2n[nH]c(=O)c3cc(F)cc(c23)N[C@@H]1c1ccc(F)cc1 + CCN1C(C(=O)NC23CCC(C(=O)O)(CC2)CC3)C(c2cccc(Cl)c2F)C2(C(=O)Nc3cc(Cl)ccc32)C12CCCCC2
2. Cc1nc(N2CCC3(CC2)COC(C)C3N)c(CO)nc1Sc1ccnc(N)c1Cl (configuration not stated) + CCN1C(C(=O)NC23CCC(C(=O)O)(CC2)CC3)C(c2cccc(Cl)c2F)C2(C(=O)Nc3cc(Cl)ccc32)C12CCCCC2
3. CNC(C)C(=O)NC1CN(S(=O)(=O)c2cccc(S(=O)(=O)N3CCC4CCC(C(=O)NC(c5ccccc5)c5ccccc5)N4C(=O)C(NC(=O)C(C)NC)C3)c2)CCC2CCC(C(=O)NC(c3ccccc3)c3ccccc3)N2C1=O (configuration not stated) + CCN1C(C(=O)NC23CCC(C(=O)O)(CC2)CC3)C(c2cccc(Cl)c2F)C2(C(=O)Nc3cc(Cl)ccc32)C12CCCCC2
4. NC(=O)C(=Cn1cnc(-c2cc(C(F)(F)F)cc(C(F)(F)F)c2)n1)c1cncnc1 + CCN1C(C(=O)NC23CCC(C(=O)O)(CC2)CC3)C(c2cccc(Cl)c2F)C2(C(=O)Nc3cc(Cl)ccc32)C12CCCCC2
5. C#Cc1c(F)ccc2cc(O)cc(-c3ncc4c(N5CC6CCC(C5)N6)nc(OCC56CCCN5CC(F)C6)nc4c3F)c12 (configuration not stated) + CCN1C(C(=O)NC23CCC(C(=O)O)(CC2)CC3)C(c2cccc(Cl)c2F)C2(C(=O)Nc3cc(Cl)ccc32)C12CCCCC2

Data returned:
["< 7.00", "< 5.52", "< 6.00", 7.46, "< 5.00"]

###

What IC50 was measured for each of the following?
# Tested on: 171881-019-R-J1-PDC complex spheroid growth, % test/control
# Assay Notes: Anticancer human tumor 171881-019-R-J1-PDC cell line growth inhibition [Asc]
# Reported Conditions: curve of first compound; second compound 0.1 µM
# Text: Multicellular complex tumor spheroid response to apoptosis pathway targeting inhibitors Alrizomadlin, Pelcitoclax, and Dasminapant in combination with a variety of drugs and investigational agents in selected tumor cell lines […] Compounds. […] If the clinical Cmax for an agent had not been determined, the highest concentration tested was 10 microM. […]

C#Cc1c(F)ccc2cc(O)cc(-c3ncc4c(N5CC6CCC(C5)N6)nc(OCC56CCCN5CC(F)C6)nc4c3F)c12 (configuration not stated) + CNC(C)C(=O)NC1CN(S(=O)(=O)c2cccc(S(=O)(=O)N3CCC4CCC(C(=O)NC(c5ccccc5)c5ccccc5)N4C(=O)C(NC(=O)C(C)NC)C3)c2)CCC2CCC(C(=O)NC(c3ccccc3)c3ccccc3)N2C1=O ... > 10 µM
O=C(c1cc(Cc2n[nH]c(=O)c3ccccc23)ccc1F)N1CCN(C(=O)C2CC2)CC1 + CNC(C)C(=O)NC1CN(S(=O)(=O)c2cccc(S(=O)(=O)N3CCC4CCC(C(=O)NC(c5ccccc5)c5ccccc5)N4C(=O)C(NC(=O)C(C)NC)C3)c2)CCC2CCC(C(=O)NC(c3ccccc3)c3ccccc3)N2C1=O ... > 10 µM
Cn1ncnc1[C@H]1c2n[nH]c(=O)c3cc(F)cc(c23)N[C@@H]1c1ccc(F)cc1 + CNC(C)C(=O)NC1CN(S(=O)(=O)c2cccc(S(=O)(=O)N3CCC4CCC(C(=O)NC(c5ccccc5)c5ccccc5)N4C(=O)C(NC(=O)C(C)NC)C3)c2)CCC2CCC(C(=O)NC(c3ccccc3)c3ccccc3)N2C1=O ... > 0.1 µM

For each of the compounds below, note its IC50.
1. CCN1CCN(Cc2ccc(Nc3ncc(F)c(-c4cc(F)c5nc(C)n(C(C)C)c5c4)n3)nc2)CC1 + Cc1c(S(C)(=O)=O)c(-c2cc(F)cc(N3CCN(c4ccc(NS(=O)(=O)c5ccc(NC(CCN6CCC(C(=O)OCCCP(=O)(O)O)CC6)CSc6ccccc6)c(S(=O)(=O)C(F)(F)F)c5)cc4)CC3)c2)c(-c2ccc(Cl)cc2)n1C(C)C
2. COc1c(OCCCN2CCOCC2)ccc2c3n(c(=NC(=O)c4cnc(N)nc4)nc12)CCN3 + CNC(C)C(=O)NC1CN(S(=O)(=O)c2cccc(S(=O)(=O)N3CCC4CCC(C(=O)NC(c5ccccc5)c5ccccc5)N4C(=O)C(NC(=O)C(C)NC)C3)c2)CCC2CCC(C(=O)NC(c3ccccc3)c3ccccc3)N2C1=O

Data returned:
1. > 1 µM
2. 0.0296 µM

For each of the compounds below, note its IC50.
1. C=CC(=O)N1CCN(c2nc(=O)n(-c3c(C)ccnc3C(C)C)c3nc(-c4c(O)cccc4F)c(F)cc23)C(C)C1 (configuration not stated) + CNC(C)C(=O)NC1CN(S(=O)(=O)c2cccc(S(=O)(=O)N3CCC4CCC(C(=O)NC(c5ccccc5)c5ccccc5)N4C(=O)C(NC(=O)C(C)NC)C3)c2)CCC2CCC(C(=O)NC(c3ccccc3)c3ccccc3)N2C1=O
2. C=C(F)C(=O)N1CCN(c2nc(OCC3CCCN3C)nc3c2CCN(c2cccc4cccc(Cl)c24)C3)CC1CC#N (configuration not stated) + CNC(C)C(=O)NC1CN(S(=O)(=O)c2cccc(S(=O)(=O)N3CCC4CCC(C(=O)NC(c5ccccc5)c5ccccc5)N4C(=O)C(NC(=O)C(C)NC)C3)c2)CCC2CCC(C(=O)NC(c3ccccc3)c3ccccc3)N2C1=O

Data returned:
["> 10 µM", "5.69 µM"]
